# systemTested: monomeric alpha-synuclein, P37840
# assaySummary: SPR, captured mAb
# conditionParameters: remark: other sources report otherwise
Known kon of a selection of binders
Write it as a number; the unit M⁻¹ s⁻¹ goes unstated.

binder	recordedResult
ACI-7079-2602G4-Ab4 (antibody, V domains shown) VH: EVQLVESGGGLVQPKGSLKLSCAASGFTFKTYAMHWVRQAPGKGLEWVARIRSKGSDYATYYADSVKDRFTISRDDSQSMLYLQMNNLKTEDTAMYFCVRGGADSWFAYWGQGTLVTVST VL: QIVLTQSPAIMSASPGERITMTCTASSSVSYMHWYQQKSGTSPKRWIYDTSKLASGVPARFSGSGSGASYTLTISSMEAEDAATYYCQQWNRNPPTFGGGTQLAIK	223000
ACI-7079-2501D10-Ab1 (antibody, V domains shown) VH: EVQLVESGGGLVQPKGSLKVSCAASGFTFKTYAMHWVRQAPGKGLEWVARIRSENSNFAKYYADSVKDRFTISRDDSQSMLYLQMNNLKTEDTAMYYCVRGYNGSSLDYWGQGTTLTVSS VL: QIVLTQSPAIMSAFPGERVTMTCSASSSVNYMHWYQQKSGTSPKRWIYDTSKLASGVPARFSGGGSGTSYSLTISNMEAEDAATYYCQQWRSNPPTFGGGTKLEIK	264000

Lookup result for ACI-8033-19A2-Ab1 (antibody, V domains shown) VH: EVQLVESGGGLVQPKGSLKLSCAASGFSFNTYAMNWVRQAPGKGLEWVARIRSKSNNYATYYVDSVKDRFTISRDDSESMLYLQMNNLKTEDTALYYCVSESAYWGQGTLVTVSA VL: DVVMTQTPLSLPVSLGDQASISCRSSQSLVHSNGNTYLYWYLQKPGQSPKLLIYKVSNRLSGVPDRFSGSGSGTDFTLKISRVEAEDLGVYFCSQSTHVPFTFGSGTKLEIK ; measured kon: 1.33e+07
